Value source: ChEMBL document CHEMBL1201862

- Test system: EKVX
- method: NCI tumour cell line growth inhibition, 48 h
Calls of active or inactive are those of the source. Cut-off read from the data, not from the text of the source: active = GI50 up to about 1.1 µM and inactive = higher.
property_measured: GI50

molecule	property_measured	reported
O=C(Nc1ccccc1)OC1OC(COC(=O)c2ccccc2)C(OC(=O)c2ccccc2)C1OS(=O)(=O)c1ccc([N+](=O)[O-])cc1 (centres undefined)	GI50	63.8 µM (inactive)
O=C1CCCCC2N(C(c3ccccc3)c3ccccc3)CC[C@@]12c1ccccc1.O=C1CCCC[C@H]2N(C(c3ccccc3)c3ccccc3)CC[C@@]12c1ccccc1 (some centres undefined)	GI50	7.73 µM (inactive)
O=c1c(Cc2ccc(Cl)cc2)nnc2sc(-c3ccc(-c4ccc(Cl)cc4Cl)o3)nn12	GI50	29.4 µM (inactive)
NC1=NN(c2ccccc2)C(=O)C1C(=O)C(=O)NC1C2CC3CC(C2)CC1C3 (centres undefined)	GI50	> 100 µM (inactive)
COc1cc2c(=O)cnoc2cc1O	GI50	> 100 µM (inactive)
CN(C)CC1CCC/C(=C\c2ccc(Cl)c(Cl)c2)C1=O (centres undefined)	GI50	10.8 µM (inactive)
O=C1c2cc(Cl)ccc2N=C(NCCCl)C2CSCN12 (centres undefined)	GI50	> 100 µM (inactive)
O=c1c(-c2ccccc2)c2oc(c1-c1ccccc1)CS(=O)(=O)CCC2	GI50	> 100 µM (inactive)
Cn1c(=O)c(C(=O)NC(=O)OCc2ccccc2)cn(CCSCCOC(=O)NCCCCCCNC(=O)OCCSCCn2cc(C(=O)NC(=O)OCc3ccccc3)c(=O)n(C)c2=O)c1=O	GI50	> 100 µM (inactive)

----------
- System: HCT-116
- method: NCI tumour cell line growth inhibition, 48 h
Activity calls are given as the source filed them. Cut-off read from the data, not from the text of the source: active = GI50 up to about 1.1 µM and inactive = higher.
Classes used: active, inactive

                                    molecule  answer_label
 0  Cc1nc2ccccc2c(=O)n1NC(=O)c1ccccc1[N+](=O)[O-]      inactive
 1  COC1C(O)C(n2ncc3c(SC)nc(SC)nc32)OC1C(O)CO (stereo not drawn)      inactive
 2  CC(=O)Nc1ccc(/C=N\N2C(=O)c3ccccc3C2=O)cc1      inactive
 3  O=C1Cc2c(-c3cccs3)cc(-c3ccccc3)nc2-c2ccccc2N1      inactive
 4   COc1ccc(-c2cc(O)c3cc4c(cc3n2)OCO4)cc1OC      inactive
 5            C/C(=N\Nc1nc2ccccc2s1)c1ccncn1        active
 6  CC[C@]1(Cc2ccc(OC)c(OC)c2)C=[N+]([O-])O[C@H](OC2CCCC2(c2ccccc2)c2ccccc2)[C@@H]1OC(C)=O (stereo partly drawn)      inactive
 7          Cc1cc2oc(=O)c(Cl)c(Cl)c2c(C)c1Cl      inactive
 8  COc1cc2cccc(NC(=O)c3cc(OC)c(OC)c(OC)c3Br)c2cc1OC      inactive
 9  CCOC(=O)c1c(N)sc2c1C(C(=O)OCC)CC2 (stereo not drawn)      inactive
10  O=c1c2ccccc2[nH]c2c(Cl)cc(Cl)c(N3CCCCC3)c12      inactive
11     CC(=O)/C(=C\c1ccccc1O)C(=O)Nc1ccccc1C      inactive
12  Cc1cc(Cl)ccc1N1C(=O)C(=O)C(c2nc3ccccc3s2)C(=O)C1=O      inactive
13  CN(C)CC1CCC/C(=C\c2ccc(Cl)c(Cl)c2)C1=O (stereo not drawn)      inactive
14     CCN(CC)C(=O)N[C@@H](Cc1ccccc1)C(=O)NC      inactive
15  CC1(C)CC23C(=O)N(c4ccccc4)C(Nc4ccccc4)=NC2=CC(C#N)=C(C#N)C3O1 (stereo not drawn)      inactive
16  CC(Cc1ccc(O)cn1)(NC(=O)c1ccccc1)C(=O)O (stereo not drawn)      inactive
17                   C#CC1=CC(=O)C(OC)=CC1=O      inactive
18  Clc1ccc2nc3c(c(-c4ccccc4)nn3-c3ccccc3)c(-c3ccccc3)c2c1      inactive
19  Cc1ncc([N+](=O)[O-])n1CCN(C)CCCCn1ccnc1[N+](=O)[O-]      inactive
20                      CSc1ncnc2c1ncn2CCC#N      inactive
21  CCc1ccccc1NC(=O)C(=O)C1C(=O)N(c2ccccc2)N=C1N (stereo not drawn)      inactive
22      O=[N+]([O-])c1ccc(-c2cnc3ccccn23)cc1      inactive

----------
- Tested on: HCT-116
- method: NCI tumour cell line growth inhibition, 48 h
Active and inactive are the calls of the source. Rule as the data show it: active = GI50 up to about 1.1 µM and inactive = higher.
Classes used: YES = active, NO = inactive

                                    molecule  answer_label
 0  NS(=O)(=O)c1ccc(Nc2c3ccccc3nc3c(C(=O)NC(CO)(CO)CO)cccc23)cc1           YES
 1  CC(=O)c1c(C(F)(F)F)[n+]([O-])c2cc(Cl)c(Cl)cc2[n+]1[O-]           YES
 2  C=C(/C=C/C=C(\CO)CCC=C(C)C)[C@H]1CCC2([C@H](CCCO)/C(=C(/C)C=O)CC[C@]2(C)O)[C@H]1O (some centres not stated)            NO
 3                    Nc1ccccc1Sc1ccc(Cl)cc1            NO
 4  CC1(C)Oc2ccc3c(=O)c4ccccc4oc3c2C1C(=O)O (configuration not stated)            NO
 5  O=P1(N(CCCl)CCCl)NCCCO1 (configuration not stated) [CYCLOPHOSPHAMIDE ANHYDROUS]            NO
 6      C(=C\c1ccco1)/c1cccc(/C=C/c2ccco2)n1            NO
 7           N[C@H](C(=O)O)[C@@H]1CC(Br)=NO1            NO
 8          CCNc1nc(N)c(C(=O)c2ccc(Cl)cc2)s1            NO
 9  CC(=O)OC(/C=C/c1ccccc1)=C(OC(C)C)/C1=C(\c2ccccc2)SCCCSC1=O            NO
10  C=C1C(=O)C([Si](C)(C)C)=C2C=C(C)C3(CC3)C12C (configuration not stated)            NO
11  O=C(CSCC(=O)N/N=C\c1cc(Br)cc(Br)c1O)N/N=C\c1cc(Br)cc(Br)c1O            NO
12  Cc1ccc(-n2c(C)nc3c2C(=O)c2ccccc2C3=O)cc1            NO
13  Cc1c(NC(=S)NC(=O)c2ccc([N+](=O)[O-])cc2)c(=O)n(-c2ccccc2)n1C            NO
14  COc1cc(COC(=O)N2CC=CC2C(=O)O)c([N+](=O)[O-])cc1OC (configuration not stated)            NO
15  COc1ccc(NC(=O)CSc2nnc(-c3ccc(NC(C)=O)cc3)o2)cc1            NO
16            Cc1nn(C)c2c1C(=O)N(C)CC(=O)N2C            NO
17                       Oc1c(Br)ccc2cccnc12            NO
18  CC(=O)OC12c3ccccc3C(c3ccccc31)C1C(=O)N(c3ccccc3O)C(=O)C12 (configuration not stated)            NO
19  O=c1ccn(C2OC(CO)C(O)C2F)c(=O)n1Cc1ccccc1 (configuration not stated)            NO
20  O=C1CCC2c3ccccc3NCN12 (configuration not stated)            NO
21               Cn1[nH]nn/c1=N\N=C\c1ccccc1            NO

----------
- Test system: SN12C
- method: NCI tumour cell line growth inhibition, 48 h
Active and inactive are the calls of the source. Cut-off read from the data, not from the text of the source: active = GI50 up to about 1.1 µM and inactive = higher.
Catalogue of compounds with associated GI50
property_measured: GI50

>>> print(df.to_string())
                                   compound  target_or_test_system             reported
0  CCOP(=O)(CCCC(O)CNc1cc(Cl)nc(N)n1)OCC (stereo not given)                  SN12C  > 100 µM (inactive)
1  Clc1ccc(SC(/C=C/NNC2=NN=C(c3ccccc3)C(c3ccccc3)N2)c2ccccc2)cc1 (stereo not given)                  SN12C   29.4 µM (inactive)
2                      CSc1ncnc2c1ncn2CCC#N                  SN12C  > 100 µM (inactive)
3  C/C(=N\NC(=O)CC(=O)N(C(=O)c1ccc(Cl)cc1)c1ccc(C)cc1)c1ccccc1O                  SN12C  > 100 µM (inactive)
4  CC(=O)Nc1ccc(/C=C(\NC(=O)c2ccccc2)c2nc3ccc4c(c3[nH]2)C(=O)c2ccccc2C4=O)cc1                  SN12C   25.4 µM (inactive)
